assay_name: MTT cytotoxicity assay, non-malignant Vero cells
condition_context: African green monkey, Vero cells
Residues, ends and D or L forms follow the SMILES beside them.
parameter: GI50 at 48 h (µM)
The answer is to be given in µM; state only the numeric part.

Q. Look up GI50 at 48 h of CC[C@H](C)[C@H](NC(=O)CNN)C(=O)N[C@@H](CCCCN)C(=O)N[C@@H](CCCCN)C(=O)N[C@H](C(=O)N[C@@H](CC(C)C)C(=O)N[C@@H](CO)C(=O)N[C@@H](CCCCN)C(=O)N[C@H](C(=O)N[C@@H](CCCCN)C(=O)N[C@@H](CCCCN)C(=O)N[C@@H](CC(C)C)C(=O)N[C@@H](CC(C)C)C(=O)N[C@@H](CCCCN)C(N)=O)[C@@H](C)CC)[C@@H](C)CC [Compound 6] (HELM PEPTIDE1{[NNCC(=O)[*:2]].I.K.K.I.L.S.K.I.K.K.L.L.K.[am]}$$$$V2.0) and report it.
A. 64

* * *

target: TDP1 (Homo sapiens, UniProt Q9NUW8)
Construct: made in house; host or cells: E. coli
Sequence (Q9NUW8 whole entry): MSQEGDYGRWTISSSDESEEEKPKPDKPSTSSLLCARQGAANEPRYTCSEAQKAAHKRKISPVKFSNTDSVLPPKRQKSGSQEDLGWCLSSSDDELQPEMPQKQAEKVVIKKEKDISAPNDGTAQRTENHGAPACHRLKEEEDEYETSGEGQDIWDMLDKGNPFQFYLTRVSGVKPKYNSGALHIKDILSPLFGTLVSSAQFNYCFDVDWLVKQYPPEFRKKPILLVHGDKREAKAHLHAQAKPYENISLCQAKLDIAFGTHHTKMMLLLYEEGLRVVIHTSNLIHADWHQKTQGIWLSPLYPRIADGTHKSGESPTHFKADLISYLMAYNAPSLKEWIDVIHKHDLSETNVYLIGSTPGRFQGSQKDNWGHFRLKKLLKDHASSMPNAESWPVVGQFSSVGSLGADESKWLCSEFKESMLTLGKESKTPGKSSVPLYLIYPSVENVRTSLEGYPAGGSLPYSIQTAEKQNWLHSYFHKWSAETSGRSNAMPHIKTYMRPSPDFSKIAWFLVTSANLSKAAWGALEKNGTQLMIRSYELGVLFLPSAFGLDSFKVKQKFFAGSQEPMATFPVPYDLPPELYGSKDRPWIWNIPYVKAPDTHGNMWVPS
assay_name: biochemical
Assay type: biochemical
condition_context: recombinant TDP1 1.5 nM, 50 nM substrate, 26 °C
Residues, ends and D or L forms follow the SMILES beside them.
parameter: IC50 (µM)
The answer is to be given in µM; state only the numeric part.

compound: CC(=O)C1=C(O)C=C2Oc3c4c(c(C)c(O)c3[C@@]2(C)C1=O)O/C(=C\c1ccc(Br)cc1)C4=O
quantity_unit: µM
IC50: 0.15

API: the following record is the query input.
Q. Identify measured IC50 obtained with TDP1 (Homo sapiens, UniProt Q9NUW8) for CC[C@H](C)[C@H](NC(=O)CNN)C(=O)N[C@@H](CCCCN)C(=O)N[C@@H](CCCCN)C(=O)N[C@H](C(=O)N[C@@H](CC(C)C)C(=O)N[C@@H](CO)C(=O)N[C@@H](CCCCN)C(=O)N[C@H](C(=O)N[C@@H](CCCCN)C(=O)N[C@@H](CCCCN)C(=O)N[C@@H](CC(C)C)C(=O)N[C@@H](CC(C)C)C(=O)N[C@@H](CCCCN)C(N)=O)[C@@H](C)CC)[C@@H](C)CC [Compound 6] (HELM PEPTIDE1{[NNCC(=O)[*:2]].I.K.K.I.L.S.K.I.K.K.L.L.K.[am]}$$$$V2.0) .
A. 1.8

* * *

target: TDP1 (Homo sapiens, UniProt Q9NUW8)
Construct: made in house; host or cells: E. coli
assay_name: biochemical
Format: biochemical
parameter: IC50 (nM)
The answer is to be given in nM; state only the numeric part.

Q. Identify measured IC50 obtained with TDP1 (Homo sapiens, UniProt Q9NUW8) for CC(=O)C1=C(O)C=C2Oc3c(-c4csc(N/N=C/c5ccc(Br)cc5)n4)c(O)c(C)c(O)c3[C@@]2(C)C1=O .
A. 26

* * *

assay_name: MTT cytotoxicity assay, T98G cells
condition_context: human
Residues, ends and D or L forms follow the SMILES beside them.
parameter: GI50 at 48 h

Q. Look up GI50 at 48 h of CC[C@H](C)[C@H](NC(=O)CNN)C(=O)N[C@@H](CCCCN)C(=O)N[C@@H](CCCCN)C(=O)N[C@H](C(=O)N[C@@H](CC(C)C)C(=O)N[C@@H](CO)C(=O)N[C@@H](CCCCN)C(=O)N[C@H](C(=O)N[C@@H](CCCCN)C(=O)N[C@@H](CCCCN)C(=O)N[C@@H](CC(C)C)C(=O)N[C@@H](CC(C)C)C(=O)N[C@@H](CCCCN)C(N)=O)[C@@H](C)CC)[C@@H](C)CC [Compound 6] (HELM PEPTIDE1{[NNCC(=O)[*:2]].I.K.K.I.L.S.K.I.K.K.L.L.K.[am]}$$$$V2.0) and report it.
A. > 100 µM
